Cited source: patent US20090325959A1

system: A-10 rat thoracic aorta cells; test: PDGF-stimulated smooth muscle cell proliferation assay (BrdU incorporation); type: cell-based; details: A-10 cells, 10 μM test compound, 10 ng/mL PDGF, BrdU incorporation; percent of total challenge-stimulated proliferation;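 also: cells kept in serum-free medium, BrdU allowed to incorporate for 24 h, then incorporated label detected fluorometrically with an anti-BrdU antibody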
So basically: is Percent of PDGF Induced Proliferation at 10 μM Avg under 40%? Then YES. Not under? Then NO.

As a guide, the following entries are already answered.
In [3]: df
Out[3]:
                                   molecule                   study_system  label_value
0  CC(=O)NCc1cccc(CN2CCC[C@H](Nc3ccc4[nH]ncc4c3)C2)c1 [Compound 1.197]  A-10 rat thoracic aorta cells           NO
1  c1cc2ccc(CN3CCC[C@H](Nc4ccc5[nH]ncc5c4)C3)cc2[nH]1 [Compound 1.148]  A-10 rat thoracic aorta cells           NO
2  CSc1ccc(CN2CCCC(Nc3cccc4cnccc34)C2)cc1 (centres unmarked) [Compound 2.009]  A-10 rat thoracic aorta cells           NO
3  c1cc2cc(CN3CCC[C@H](Nc4ccc5[nH]ncc5c4)C3)ccc2s1 [Compound 1.175]  A-10 rat thoracic aorta cells           NO
4  COc1ccc(CN2CC[C@@H](Nc3cccc4cnccc34)C2)cc1 [Compound 2.047]  A-10 rat thoracic aorta cells           NO
5  c1cc2cc(CN3CCC[C@@H](Nc4ccc5[nH]ncc5c4)C3)ccc2o1 [Compound 1.131]  A-10 rat thoracic aorta cells          YES

Okay, next one:
Does the reported Percent of PDGF Induced Proliferation at 10 μM Avg of Cc1ccc(S(=O)(=O)Nc2cc(CN3CCC[C@H](Nc4ccc5[nH]ncc5c4)C3)ccc2C)cc1 [Compound 1.239] stay below 40%?
YES

* * *

target: ROCK2 (Homo sapiens); construct: purchased Upstate/Chemicon 14-451; assay: Rho kinase inhibition assay (IMAP fluorescence polarization), ROCK2; assay type: biochemical; conditions: read-out: ROCK2 Ki, Avg;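 also: kinase reaction started with 10 µM ATP and run 60 min at room temperature, then phosphorylated substrate captured on IMAP beads for 30 min and fluorescence polarization read in mP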
Sequence (O75116 11-552 limits assumed): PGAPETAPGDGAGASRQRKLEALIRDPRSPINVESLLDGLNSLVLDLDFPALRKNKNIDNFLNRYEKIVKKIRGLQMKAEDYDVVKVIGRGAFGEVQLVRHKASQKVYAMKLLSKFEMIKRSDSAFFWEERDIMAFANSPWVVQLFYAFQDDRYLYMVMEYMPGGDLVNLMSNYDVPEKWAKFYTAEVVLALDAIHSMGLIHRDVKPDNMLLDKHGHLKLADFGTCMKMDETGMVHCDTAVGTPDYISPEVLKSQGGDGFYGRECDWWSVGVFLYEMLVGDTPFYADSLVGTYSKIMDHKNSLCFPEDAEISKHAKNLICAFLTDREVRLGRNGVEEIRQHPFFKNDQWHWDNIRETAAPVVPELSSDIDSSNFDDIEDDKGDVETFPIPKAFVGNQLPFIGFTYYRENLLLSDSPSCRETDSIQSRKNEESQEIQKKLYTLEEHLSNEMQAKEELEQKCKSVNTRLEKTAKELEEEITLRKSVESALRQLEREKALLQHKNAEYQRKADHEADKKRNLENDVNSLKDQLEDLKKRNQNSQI
Property Label: pKi
Worth noting: pKi values are minus log10 of concentrations stated in mol/L.

# pKi lookup, item NCc1ccc(CN2CCC[C@@H](Nc3ccc4[nH]ncc4c3)C2)cc1
6.19

* * *

Entries annotated with measured pKi
target: ROCK1 (Homo sapiens, UniProt Q13464); construct: purchased Upstate/Chemicon 14-601; assay: Rho kinase inhibition assay (IMAP fluorescence polarization), ROCK1; type: biochemical; details: Avg, 10 μM ATP
Sequence (Q13464 17-535 limits assumed): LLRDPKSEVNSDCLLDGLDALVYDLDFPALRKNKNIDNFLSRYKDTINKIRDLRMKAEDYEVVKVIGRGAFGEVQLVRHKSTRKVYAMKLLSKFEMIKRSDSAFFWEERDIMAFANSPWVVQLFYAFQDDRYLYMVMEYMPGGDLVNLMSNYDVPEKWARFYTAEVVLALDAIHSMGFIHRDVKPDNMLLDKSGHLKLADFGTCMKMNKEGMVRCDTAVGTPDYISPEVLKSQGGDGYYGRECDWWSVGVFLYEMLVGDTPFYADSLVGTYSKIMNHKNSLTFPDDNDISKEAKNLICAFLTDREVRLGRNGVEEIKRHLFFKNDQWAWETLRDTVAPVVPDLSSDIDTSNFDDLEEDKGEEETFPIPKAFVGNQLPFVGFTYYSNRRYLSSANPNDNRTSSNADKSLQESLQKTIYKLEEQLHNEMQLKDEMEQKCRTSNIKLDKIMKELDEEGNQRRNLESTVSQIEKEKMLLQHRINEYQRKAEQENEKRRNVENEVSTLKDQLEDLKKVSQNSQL
Interpret pKi as the negative base-10 log of the concentration measured in mol/L.

Which pKi value belongs to CCOc1cccc(CN2CCC[C@@H](Nc3ccc4[nH]ncc4c3)C2)c1 ?
6.48

Which value of pKi has been reported for COc1ccc(CN2CCC[C@H](Nc3ccc4[nH]ncc4c3)C2)cc1NS(C)(=O)=O in the records?
5.76

Given the entry c1cc2cc(CN3CCC[C@H](Nc4ccc5[nH]ncc5c4)C3)ccc2o1 , report its measured pKi.
7.48

Quick one: pKi for CCOc1cccc(CN2CCC[C@H](Nc3ccc4[nH]ncc4c3)C2)c1 ?
6.53

Consider the compound C#Cc1ccc(CN2CCC[C@H](Nc3ccc4[nH]ncc4c3)C2)cc1 and give its measured pKi.
7.12

Give its pKi value. Item: Oc1cccc(CN2CCC[C@@H](Nc3ccc4[nH]ncc4c3)C2)c1
7.46

I have this compound here, c1csc(CN2CC[C@@H](Nc3cccc4cnccc34)C2)c1 , and I need its recorded pKi.
7.27

Entry under review: Cn1c(CN2CC[C@@H](Nc3cccc4cnccc34)C2)nc2ccccc21 . Reported pKi?
6.91
